Can you tell me MIC for the items I'm about to list?
# Test system: Magnaporthe grisea f. sp. oryzae
# test_description: microbe, parasite or virus in culture
# Assay type: cell-based
# condition_description: Pyricularia oryzae, read-out: MIC (Minimum Inhibitory Concentration) PYRIOR, Table II; total inhibition of mycelial growth, V8 juice nutrient solution, 6-12 days at 18-25°C, visual inspection

Q: Assign MIC to the following record: Fc1cccc(Cl)c1-c1c(Cl)nc2ncnn2c1C1CCCC1 [Example 29]
A: < 0.05 µg/mL

Q: Given the compound CCCCCCc1c(-c2c(F)cccc2Cl)c(Cl)nc2ncnn12 [Example 1] , write its reported MIC.
A: 1.56 µg/mL

Q: Supply measured MIC of CC(C)c1c(-c2c(F)cccc2Cl)c(Cl)nc2ncnn12 [Example 27] in your reply.
A: 0.2 µg/mL

Q: Fill in reported MIC for this entry: CCCCc1c(-c2ccccc2F)c(Cl)nc2ncnn12 [Example 21]
A: < 0.05 µg/mL

Q: State, in one line, measured MIC of CC(C)Cc1c(-c2c(F)cccc2Cl)c(Cl)nc2ncnn12 [Example 26]
A: < 0.05 µg/mL

Q: Could you please provide reported MIC for Fc1cc(F)c(-c2c(Cl)nc3ncnn3c2[C@H]2CC[C@@H](F)CC2)c(F)c1 [Example 71] ? Thanks!
A: < 0.05 µg/mL

Q: Let me know recorded MIC for Fc1cccc(F)c1-c1c(Cl)nc2ncnn2c1C1CCCCC1 [Example 40] , thanks.
A: 0.39 µg/mL

Q: Name the recorded MIC of the compound listed here: CCCCc1c(-c2c(F)cc(OC)cc2F)c(Cl)nc2ncnn12 [Example 96]
A: < 0.05 µg/mL

Q: Supply MIC value. Item: COc1cc(F)c(-c2c(Cl)nc3ncnn3c2CC(C)C)c(F)c1 [Example 94]
A: < 0.05 µg/mL

###

Field: MIC. Provide a value for each of the compounds that follow.
# Tested on: Magnaporthe grisea f. sp. oryzae
# test_description: microbe, parasite or virus in culture
# Assay type: cell-based
# condition_description: Pyricularia oryzae, read-out: MIC (Minimum Inhibitory Concentration) PYRIOR, Table II; total inhibition of mycelial growth, V8 juice nutrient solution, 6-12 days at 18-25°C, visual inspection
Respond with the bare value in µg/mL.

Q: Return value of MIC for input COc1cc(F)c(-c2c(OC)nc3ncnn3c2C2CCCC2)c(F)c1 [Example 99] , no commentary.
A: 0.39

Q: Report measured MIC; entry is CCCCc1c(-c2ccccc2C)c(Cl)nc2ncnn12 [Example 19]
A: 0.78

Q: Identify measured MIC associated with COc1cc(F)c(-c2c(Cl)nc3ncnn3c2C2CCCO2)c(F)c1 (centres unmarked) [Example 95]
A: 0.1

Q: // Input: Fc1c(F)c(F)c(-c2c(Cl)nc3ncnn3c2C2CCCCC2)c(F)c1F [Example 101] . Output its MIC only.
A: 0.2

Q: Supply reported MIC belonging to this compound: COc1nc2ncnn2c([C@H]2CC[C@@H](F)CC2)c1-c1c(F)cc(F)cc1F [Example 75]
A: 0.39

Q: Using known records, supply MIC for Fc1ccccc1-c1c(Cl)nc2ncnn2c1C1CCCCC1 [Example 42]
A: 0.39

Q: Look up MIC of CCCc1c(-c2c(F)cc(OC)cc2F)c(OC)nc2ncnn12 [Example 98] and report it.
A: 0.2

Q: Item [N-]=[N+]=Nc1nc2ncnn2c(C2CCCCC2)c1-c1c(F)cccc1Cl [Example 45] : provide MIC
A: 12.5

Q: Tell us which MIC value is on record for COc1nc2ncnn2c(C2CCCCC2)c1-c1c(F)cc(F)cc1F [Example 49]
A: 0.39

Q: Complete the entry with MIC for CC(=O)OC1CCC(c2c(-c3c(F)cc(F)cc3F)c(Cl)nc3ncnn23)CC1 (centres unmarked) [Example 84]
A: 3.13

Q: Identify MIC associated with the compound COc1nc2ncnn2c(C2CCCCC2)c1-c1c(F)cccc1F [Example 7]
A: 1.56

Q: Report MIC for COc1nc2ncnn2c(C2CCCCC2)c1-c1ccccc1F [Example 50]
A: 25
